Assay: in vitro
Settings: human, CAR-T cells
VALUE TYPE: viability at 12 day, 5 nM (%)
Could you give me the number in %? Just the number is fine.

CCS(=O)(=O)N1CC(CC#N)(n2cc(-c3ncnc4[nH]ccc34)cn2)C1 has a reported viability at 12 day, 5 nM of 82.3

* * *

Assay: in vitro
Conditions: human, CAR-T cells
VALUE TYPE: viability at 0 day, 5 nM (%)
Could you give me the number in %? Just the number is fine.

CCS(=O)(=O)N1CC(CC#N)(n2cc(-c3ncnc4[nH]ccc34)cn2)C1 has a reported viability at 0 day, 5 nM of 75

* * *

Assay: in vitro
Conditions: human, CAR-T cells
VALUE TYPE: viability at 0 day, 100 nM (%)
Could you give me the number in %? Just the number is fine.

COMPOUND	UNIT ANNOTATION	viability at 0 day, 100 nM
C[C@@H]1C[C@H]2[C@@H]3CCC4=CC(=O)C=C[C@]4(C)[C@@]3(F)[C@@H](O)C[C@]2(C)[C@@]1(O)C(=O)CO [dexamethasone]	%	75

CC[C@@H]1CN(C(=O)NCC(F)(F)F)C[C@@H]1c1cnc2cnc3[nH]ccc3n12 [upadacitinib] has a reported viability at 0 day, 100 nM of 75

Hey, just so you know, these numbers are from patent US12252701B2.
